Experiment: Selectivity index, ratio of IC50 for HAF to IC50 for human HCT8 cells
Type: toxicity
Conditions: HAF cells versus HCT8 cells, read-out: Ratio IC50
measurement.kind: selectivity ratio

As a guide, the following entries are already answered.
compound: COc1cc2c(cc1C(=O)Nc1ccc(OC(F)(F)F)cc1)CC[C@H]1C(C)(C)C(=O)C(C#N)=C[C@]21C
selectivity ratio: 5.4 to 10.7

compound: CC1(C)C(=O)C(C#N)=C[C@]2(C)c3cc(O)c(C(=O)Nc4ccc(OC(F)(F)F)cc4)cc3CC[C@@H]12
selectivity ratio: 4.5 to 6.9

compound: COc1cc(Br)c(Nc2nc(-c3c(C)nc4ncccn34)cs2)c(Br)c1
selectivity ratio: 1.6 to 1.7

Moving on to the next compound.
Looking for the measured selectivity ratio of COC(=O)[C@]12CCC(C)(C)C[C@H]1[C@H]1C(=O)C=C3[C@@]4(C)C=C(C#N)C(=O)C(C)(C)[C@@H]4CC[C@@]3(C)[C@]1(C)CC2 [BARDOXOLONE METHYL] , can you help? 7.2 to 8.4

###

Test: Selectivity index, ratio of IC50 for HAF to IC50 for human HCT116 cells
Type: toxicity
Details: HAF cells versus HCT116 cells, read-out: Ratio IC50
Recorded measurements of selectivity ratio, one per entry

As a guide, the following entries are already answered.
smiles.str: COc1cc2c(cc1C(=O)Nc1ccccc1OC(F)(F)F)CC[C@H]1C(C)(C)C(=O)C(C#N)=C[C@]21C
selectivity ratio: 7.3 to 13.1

smiles.str: COC(=O)[C@]12CCC(C)(C)C[C@H]1[C@H]1C(=O)C=C3[C@@]4(C)C=C(C#N)C(=O)C(C)(C)[C@@H]4CC[C@@]3(C)[C@]1(C)CC2
selectivity ratio: 7.2 to 8.4

Moving on to the next compound.
Looking for the measured selectivity ratio of COc1cc2c(cc1C(=O)Nc1ccc(OC(F)(F)F)cc1)CC[C@H]1C(C)(C)C(=O)C=C[C@]21C , can you help? 3 to 3.8

###

Assay: Antiproliferative activity against HAF after 72 hrs by SRB assay
Set-up: species or system Homo sapiens
Recorded measurements of pIC50, one per entry
pIC50 is a log-scale quantity: -log10 of the concentration expressed in molar.

compound: COc1cc(Br)c(Nc2nc(-c3c(C)nc4ncccn34)cs2)c(Br)c1
measurement.kind: pIC50
value.measured: 5.99

Looking for the measured pIC50 of COc1cc2c(cc1C(=O)Nc1ccccc1OC(F)(F)F)CC[C@H]1C(C)(C)C(=O)C(C#N)=C[C@]21C , can you help? 5.48

Looking for the measured pIC50 of COc1cc2c(cc1C(=O)NNc1ccc(OC(F)(F)F)cc1)CC[C@H]1C(C)(C)C(=O)C(C#N)=C[C@]21C , can you help? 5.34

Looking for the measured pIC50 of COc1cc2c(cc1C(=O)NCc1ccc(OC(F)(F)F)cc1)CC[C@H]1C(C)(C)C(=O)C(C#N)=C[C@]21C , can you help? 5.28

Looking for the measured pIC50 of COc1cc2c(cc1C(=O)Nc1ccc(OC(F)(F)F)cc1)CC[C@H]1C(C)(C)C(=O)C=C[C@]21C , can you help? 4.77

Looking for the measured pIC50 of COc1cc2c(cc1C(=O)Nc1ccc(OC(F)(F)F)cc1)CC[C@H]1C(C)(C)C(=O)C(C#N)=C[C@]21C , can you help? 5.49

Looking for the measured pIC50 of COC(=O)[C@]12CCC(C)(C)C[C@H]1[C@H]1C(=O)C=C3[C@@]4(C)C=C(C#N)C(=O)C(C)(C)[C@@H]4CC[C@@]3(C)[C@]1(C)CC2 [BARDOXOLONE METHYL] , can you help? 5.68

Looking for the measured pIC50 of CC1(C)C(=O)C(C#N)=C[C@]2(C)c3cc(O)c(C(=O)Nc4ccc(OC(F)(F)F)cc4)cc3CC[C@@H]12 , can you help? 4.86

Looking for the measured pIC50 of COc1cc2c(cc1C(=O)Nc1cccc(OC(F)(F)F)c1)CC[C@H]1C(C)(C)C(=O)C(C#N)=C[C@]21C , can you help? 5.45
